Assay: physchem
Conditions: pH 7.4
# note: exactly 2 is not below, so it is not met; use met for chromatographic logD strictly under it

Use these answered entries as a reference point.
{"Smiles structure": "Cc1nc(-c2ncco2)c(NC(=O)c2c(F)c(F)c(F)c(F)c2F)o1", "Assigned category": "met"}
{"Smiles structure": "COC(=O)c1nc(C)oc1NC(=O)c1c(F)c(F)c(F)c(F)c1F", "Assigned category": "met"}
{"Smiles structure": "CCOC(=O)c1nc(-c2ccccc2)oc1NC(=O)c1c(F)c(F)c(F)c(F)c1F", "Assigned category": "not met"}
{"Smiles structure": "Cc1noc(-c2nc(C)oc2NC(=O)c2c(F)c(F)c(F)c(F)c2F)n1", "Assigned category": "met"}

Input CCOC(=O)c1nc(CN(C)C)oc1NC(=O)c1c(F)c(F)c(F)c(F)c1F ; condition: chromatographic logD strictly below 2. Does it hold? met

Determine if Cc1nc(C(=O)OC(C)(C)C)c(NC(=O)c2c(F)c(F)c(F)c(F)c2F)o1 shows chromatographic logD strictly lower than 2. not met

Does the reported chromatographic logD of Cc1ncc(NC(=O)c2c(F)c(F)c(F)c(F)c2F)o1 stay below 2? met

Does the reported chromatographic logD of Cc1nnc(-c2nc(C)oc2NC(=O)c2c(F)c(F)c(F)c(F)c2F)o1 stay below 2? met
